- Target Or System: 6× His-tagged, full-length IDOL (Homo sapiens)
- Construct: Full length IDOL (1–445) was cloned with a TEV cleavable N-terminal 6xHis tag; made in house; host or cells: Spodoptera frugiperda Sf21 (baculovirus, pFastbac1)
- Sequence (Q8WY64 whole entry): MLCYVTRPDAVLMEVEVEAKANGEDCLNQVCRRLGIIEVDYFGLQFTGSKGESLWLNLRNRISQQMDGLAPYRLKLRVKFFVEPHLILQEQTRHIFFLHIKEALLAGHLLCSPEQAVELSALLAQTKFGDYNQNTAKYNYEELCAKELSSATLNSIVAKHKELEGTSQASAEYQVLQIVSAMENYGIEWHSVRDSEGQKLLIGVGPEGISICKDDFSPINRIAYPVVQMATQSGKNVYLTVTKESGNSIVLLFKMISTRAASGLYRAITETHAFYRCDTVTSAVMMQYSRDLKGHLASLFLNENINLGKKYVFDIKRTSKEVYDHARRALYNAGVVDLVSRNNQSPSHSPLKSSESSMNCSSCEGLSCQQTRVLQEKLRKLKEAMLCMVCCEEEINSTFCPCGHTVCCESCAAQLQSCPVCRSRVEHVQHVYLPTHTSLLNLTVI
- Method Description: Surface plasmon resonance (SPR) affinity for IDOL
- Format: binding
- Study Conditions: SPR, immobilized full-length His-IDOL; saturation at highest concentrations not observed; read-out: Kd
Residues, ends and D or L forms follow the SMILES beside them.
Readout: Kd

CC[C@H](C)[C@@H]1NC(=O)[C@H](C(C)C)NC(=O)[C@H](C(C)C)NC(=O)[C@H](CO)NC(=O)[C@H](CS)NC(=O)[C@H](CC(C)C)NC1=O [cyclo-CSVVIL] (HELM PEPTIDE1{C.S.V.V.I.L}$PEPTIDE1,PEPTIDE1,1:R1-6:R2$$$V2.0) yielded Kd of ~1 mM

# Kd of CC[C@H](C)[C@@H]1NC(=O)[C@H](CC(C)C)NC(=O)[C@H](Cc2ccccc2)NC(=O)[C@H](CC(C)C)NC(=O)[C@H](CCCNC(=N)N)NC(=O)[C@H](CS)NC1=O [cyclo-CRLFLI] (HELM PEPTIDE1{C.R.L.F.L.I}$PEPTIDE1,PEPTIDE1,1:R1-6:R2$$$V2.0) = ~3 mM

Consider CC[C@H](C)[C@@H]1NC(=O)[C@H](CC(C)C)NC(=O)[C@H]([C@@H](C)O)NC(=O)[C@H](CS)NC(=O)[C@H](Cc2ccccc2)NC(=O)[C@H](CC(C)C)NC1=O [cyclo-CTLILF] (HELM PEPTIDE1{C.T.L.I.L.F}$PEPTIDE1,PEPTIDE1,1:R1-6:R2$$$V2.0) . Its measured Kd is ~10 mM
